Tested on: Mus musculus
TEST: Toxicity in mouse Meth-A cells xenografted BALB/c mouse assessed as mortality at 50 mg/kg, iv
Assay type: organism-based
Parameters: dose 50 mg/kg, route intravenous
MEASUREMENT_CONDITIONS: in vivo

{"columns": ["RECORD_SMILES", "Activity"],
 "data": [
  ["COc1cc2c3c(c4ccc(O)cc4c2cc1OC)[C@@H](O)[C@H]1CCCN1C3", "Non-toxic"],
  ["COc1cc2c3c(c4ccc(O)cc4c2cc1OC)[C@H](O)[C@@H]1CCCN1C3", "Toxic"],
  ["COc1cc2c(CBr)cc3ccc(OCc4ccccc4)cc3c2cc1OC", "Non-toxic"],
  ["CCOc1cc2c3c(c4ccc(O)cc4c2cc1OCC)[C@H](O)[C@@H]1CCCN1C3", "Non-toxic"],
  ["COc1ccc2c3c(c4cc(OC)c(OC)cc4c2c1)CN1CCC[C@H]1[C@H]3O", "Non-toxic"]
]}
